Target: OsWRKY34 (Oryza sativa, UniProt Q0JBA9 1-250)
Sequence (Q0JBA9 entry or part of it): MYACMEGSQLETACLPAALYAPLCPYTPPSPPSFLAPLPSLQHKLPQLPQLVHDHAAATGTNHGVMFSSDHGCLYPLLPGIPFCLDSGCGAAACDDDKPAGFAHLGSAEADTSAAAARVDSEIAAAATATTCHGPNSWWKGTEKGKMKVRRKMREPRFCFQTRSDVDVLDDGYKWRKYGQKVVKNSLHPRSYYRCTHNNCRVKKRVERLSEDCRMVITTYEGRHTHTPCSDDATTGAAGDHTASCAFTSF
Test: protein-binding microarray (RPBM); PBS, 2% BSA, 51.3 ng/ul salmon testes DNA, 50 uM zinc acetate, 200 nM TF, 25 C, 1 h; high values mean tight binding
Settings: protein: recombinant; tags: N-terminal polyhistidine and DsRed monomer fusion (pET32a); label: CyDye5-dUTP incorporated in the synthesized complementary strand; 3' TTTTT single-stranded linker to array surface; dsDNA, one strand shown
Whole data set: some 68,000 sequences, median “fluorescence intensity (a.u.)” near 9,100, cut for the highest 2% near 16,000. For the sample, the highest values were picked, then their nearest neighbours and some sequences at random.
value type: binding signal

Give OsWRKY34 (Oryza sativa, UniProt Q0JBA9 1-250) binding signal for "TGATTTTTGTCCCACGTGGCATTGACGTGGCGCTTATGTGCGGAGTCACCTAGTGCAG"
8850 fluorescence intensity (a.u.)

Give OsWRKY34 (Oryza sativa, UniProt Q0JBA9 1-250) binding signal for "AATGTTTGACACCGTTGACTTTTTAGTACGTGTTTGTCCACGGAGTCACCTAGTGCAG"
30200 fluorescence intensity (a.u.)

Give OsWRKY34 (Oryza sativa, UniProt Q0JBA9 1-250) binding signal for "ATCAAATGGTCATTCCAACGGTTGTCCTGTGCTTTTGTAACGGAGTCACCTAGTGCAG"
8020 fluorescence intensity (a.u.)

Give OsWRKY34 (Oryza sativa, UniProt Q0JBA9 1-250) binding signal for "AAGTGGGTGAGTCCAATAGGTGTGCACGTGAGGGGAGGGGCGGAGTCACCTAGTGCAG"
10500 fluorescence intensity (a.u.)

Give OsWRKY34 (Oryza sativa, UniProt Q0JBA9 1-250) binding signal for "ATTCTGTTGCGTCATCATGTTCCTGTCTACAGAGCTATACCGGAGTCACCTAGTGCAG"
8840 fluorescence intensity (a.u.)

----------
Target: OsWRKY34 (Oryza sativa, UniProt Q0JBA9 1-250)
Assay: protein-binding microarray (RPBM); PBS, 2% BSA, 51.3 ng/ul salmon testes DNA, 50 uM zinc acetate, 200 nM TF, 25 C, 1 h; high values mean tight binding
Settings: protein: recombinant; tags: N-terminal polyhistidine and DsRed monomer fusion (pET32a); label: CyDye5-dUTP incorporated in the synthesized complementary strand; 3' TTTTT single-stranded linker to array surface; dsDNA, one strand shown
The full ranking holds about 68,000 sequences; the median of “fluorescence intensity (a.u.)” is about 9,100, and the highest 2% start at about 16,000. This is one part of a sample in which the highest values are shown more often than they occur.
value type: binding signal

May I ask what binding signal has been recorded for "CGTTGACTTTTTTTCAACGTTTAATAATTTATCTTATTCACGGAGTCACCTAGTGCAG" ?
12900 fluorescence intensity (a.u.)

May I ask what binding signal has been recorded for "TGTTGACTTTTTTTATTAACGTTTAGCATTTATCTTATTTCGGAGTCACCTAGTGCAG" ?
18000 fluorescence intensity (a.u.)

May I ask what binding signal has been recorded for "CCGTTGACTTTTTAACTAATGTTTAACCATTCATTTTATTCGGAGTCACCTAGTGCAG" ?
28900 fluorescence intensity (a.u.)

May I ask what binding signal has been recorded for "ACTTTTTAACCAACGTTTGACCATTCGTCTTATTCAAATTCGGAGTCACCTAGTGCAG" ?
10600 fluorescence intensity (a.u.)

May I ask what binding signal has been recorded for "ATTCTGTTATGAACTATGTAAACCTTCTCATGTATATTCACGGAGTCACCTAGTGCAG" ?
8840 fluorescence intensity (a.u.)

May I ask what binding signal has been recorded for "TATGACGTCGTTGACTTTTTAACCAACGTTTGACCATCGTCGGAGTCACCTAGTGCAG" ?
32900 fluorescence intensity (a.u.)

May I ask what binding signal has been recorded for "TCCTGTCCAGTCTCCACTCGCAAACCCTTCTCGCCGCCATCGGAGTCACCTAGTGCAG" ?
10400 fluorescence intensity (a.u.)

May I ask what binding signal has been recorded for "TCTTGACCAACGTTTAACCATTCGTTTTATTTAAAATTTTCGGAGTCACCTAGTGCAG" ?
9450 fluorescence intensity (a.u.)

May I ask what binding signal has been recorded for "GACTTTTCACGTAACGTTTGACCATTTATCTTATTTATAACGGAGTCACCTAGTGCAG" ?
9970 fluorescence intensity (a.u.)
